target: NK1 receptor (Cavia porcellus, UniProt P30547); construct: from tissue; host or cells: isolated guinea pig ileum; test: Test for NK1 receptor antagonist: substance P concentration-response in isolated guinea pig ileum, Schild analysis; conditions: substance P-induced contraction, 10 min pretreatment, method of Schild
Sequence (P30547 whole entry): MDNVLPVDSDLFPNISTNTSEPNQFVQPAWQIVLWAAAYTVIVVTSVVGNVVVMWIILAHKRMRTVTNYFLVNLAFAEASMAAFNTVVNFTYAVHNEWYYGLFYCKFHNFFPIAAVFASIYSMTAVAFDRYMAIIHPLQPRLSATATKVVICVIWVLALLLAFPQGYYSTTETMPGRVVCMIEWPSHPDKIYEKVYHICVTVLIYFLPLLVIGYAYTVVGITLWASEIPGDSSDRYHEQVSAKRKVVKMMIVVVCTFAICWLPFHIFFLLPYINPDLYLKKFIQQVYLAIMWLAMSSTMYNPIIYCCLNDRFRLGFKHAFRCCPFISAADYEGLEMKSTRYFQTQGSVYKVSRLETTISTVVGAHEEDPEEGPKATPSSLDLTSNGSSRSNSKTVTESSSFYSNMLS
Answer No if Kb is under 0.1 nM, and Yes if it is 0.1 nM or more.

Exercise: Does Cc1ccc(-c2c3n(c(=O)c4ncccc24)CC[C@@H](C)CN(Cc2cc(C(F)(F)F)cc(C(F)(F)F)c2)C3=O)cc1 [TAK-637] have a reported Kb of at least 0.1 nM?
Key: Yes

Exercise: Moving on to CC(=O)N1CCN(c2nc3c(c(-c4ccccc4C)n2)C(=O)N(Cc2cc(C(F)(F)F)cc(C(F)(F)F)c2)CCCN3)CC1 [Compound of Example 4]
Key: Yes

Exercise: Moving on to Cc1ccccc1-c1nc(N2CCOCC2)nc2c1C(=O)N(Cc1cc(C(F)(F)F)cc(C(F)(F)F)c1)CCCN2C [Compound of Example 21]
Key: Yes

Exercise: Moving on to CC(=O)N1CCN(c2nc(-c3ccccc3C)c3c(n2)N(C(C)=O)CCCN(Cc2cc(C(F)(F)F)cc(C(F)(F)F)c2)C3=O)CC1 [Compound of Example 22]
Key: No

Exercise: Moving on to COc1ccccc1-c1nc(N2CCS(=O)(=O)CC2)nc2c1C(=O)N(Cc1cc(C(F)(F)F)cc(C(F)(F)F)c1)CCCN2 [Compound of Example 28]
Key: Yes

Exercise: Moving on to CC(=O)N1CCN(c2nc(-c3ccccc3C)c3c(n2)N(C)CCCN(Cc2cc(C(F)(F)F)cc(C(F)(F)F)c2)C3=O)CC1 [Compound of Example 20]
Key: Yes

All figures here come from patent US7064119B2.
